Values were extracted from PubChem BioAssay (Tox21).

ASSAY METHOD TEXT: qHTS RealTime-Glo MT Cell Viability Assay in HEK293 cells - 32 hour (AID 1224868); further: nearly all actives have a fitted effect of over 50% in size
MEASUREMENT CONDITIONS: RealTime-Glo luminescence; series mostly up to 76.8 µM
Text: National Center for Advancing Translational Sciences [NCATS] NIH Chemical Genomics Center [NCGC] U.S. Environmental Protection Agency [EPA] National Institutes of Environmental Health Sciences [NIEHS] National Toxicology Program [NTP] U.S. Food and Drug Administration [FDA] Measure of cell viability is critical in the cell-base assay. Analysis of cell viability is necessary for the characterization of cell responses to cytotoxic drugs and environmental stress. […]
Results filed as inconclusive are left out. Active and inactive are the calls of the source. The call rests on the fitted dose curve; in most records, active means well fitted cell-killing curve with a large enough effect in the repeat runs; inconclusive means weak or mixed curves, or effect the other way; inactive means flat fitted curve, though single readings scatter.
Please state which outcome applies, choosing from 1 (active), 0 (inactive)

| MOLECULE | LABEL VALUE |
| --- | --- |
| IC(I)I | 0 |

**Query** Recorded call for `O=C(O)c1cc(=O)[nH]c(=O)[nH]1` ?
**Result** 0

**Query** Recorded call for `Nc1cc([N+](=O)[O-])ccc1C(=O)O` ?
**Result** 0

**Query** Recorded call for `COC(=O)c1ccc(C)cc1` ?
**Result** 0

**Query** Recorded call for `O=C(O)CCCC(=O)O` ?
**Result** 0

**Query** Recorded call for `NCCOCCO` ?
**Result** 0

**Query** Recorded call for `C=CN1CCCC1=O` ?
**Result** 0

**Query** Recorded call for `CCCCCC=O` ?
**Result** 0

**Query** Recorded call for `O=C(O)c1ccc(O)cc1` ?
**Result** 0

**Query** Recorded call for `C=CC(=O)OCCCC` ?
**Result** 0

**Query** Recorded call for CCc1cccc2c3c([nH]c12)C(CC)(CC(=O)O)OCC3 (configuration not stated) ?
**Result** 0

**Query** Recorded call for `Cc1ccc(/C(=C\CN2CCCC2)c2ccccn2)cc1` ?
**Result** 0

**Query** Recorded call for `OC[C@H]1O[C@@H]2O[C@H]3[C@H](O)[C@@H](O)[C@@H](O[C@H]4[C@H](O)[C@@H](O)[C@@H](O[C@H]5[C@H](O)[C@@H](O)[C@@H](O[C@H]6[C@H](O)[C@@H](O)[C@@H](O[C@H]7[C@H](O)[C@@H](O)[C@@H](O[C@H]1[C@H](O)[C@H]2O)O[C@@H]7CO)O[C@@H]6CO)O[C@@H]5CO)O[C@@H]4CO)O[C@@H]3CO` ?
**Result** 0

**Query** Recorded call for `CC(=O)O[C@]1(C(C)=O)CC[C@H]2[C@@H]3C=C(C)C4=CC(=O)CC[C@]4(C)[C@H]3CC[C@@]21C` ?
**Result** 1

**Query** Recorded call for COC(=O)C(C)Oc1ccc(Oc2ncc(C(F)(F)F)cc2Cl)cc1 (configuration not stated) ?
**Result** 0

**Query** Recorded call for `CC(C)[C@@H]1CC[C@@H](C)CC1=O` ?
**Result** 0

**Query** Recorded call for `CCCCCCCC/C=C\CCCCCCCC(=O)O` ?
**Result** 0

**Query** Recorded call for `O=[Se](O)O` ?
**Result** 1

**Query** Recorded call for `[Na+]` ?
**Result** 0

**Query** Recorded call for `Nc1ccc2c(c1)C(=O)c1ccccc1C2=O` ?
**Result** 0

**Query** Recorded call for `CC(=O)Oc1ccc(C(c2ccc(OC(C)=O)cc2)c2ccccn2)cc1` ?
**Result** 0

**Query** Recorded call for `[O-]/[N+](=N\O)c1ccccc1` ?
**Result** 0

**Query** Recorded call for `Cc1ccc(C(C)(C)C)c(O)c1` ?
**Result** 0
